Origin of measurements: PubChem BioAssay (NCI)

measurementDescription: NCI Yeast Anticancer Drug Screen. Data for the wt1 strain (AID 149);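 note: 0% = growth of vehicle-treated wt1 cultures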
measurementSetup: S. cerevisiae wt1 strain (SPY 50644) growth inhibition; at 1.2 µM; active compounds read high
The panel holds about 79,000 compounds, 15% with a hit somewhere; the sample as a whole holds those more often.
endpointName: growth inhibition (%)
Expressed in %, but write only the number.

Sample "CCCC#CCOC(=O)c1cc([N+](=O)[O-])cc([N+](=O)[O-])c1" — what was its growth inhibition? -4

Sample CCCCCCC(CCl)c1sc(-c2csc(CCNC(=O)OC(C)(C)C)n2)nc1C(=O)OC (centres undefined) — what was its growth inhibition? -1

Sample "COc1ccc2nc(N/N=C/c3sccc3C)cc(C)c2c1" — what was its growth inhibition? -39

Sample "O=[N+]([O-])c1cccc2nc3ccccc3c(NCCC[N+]3([O-])CCOCC3)c12" — what was its growth inhibition? -78

###

measurementDescription: NCI Yeast Anticancer Drug Screen. Data for the rad50EPP+ strain (AID 151);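 note: 0% = growth of vehicle-treated control cultures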
measurementSetup: S. cerevisiae rad50 mutant strain, at 33.0 µM, active compounds read high
About 79,000 compounds went through this panel and 15% of them were active in at least one assay; those are over-represented in the sample as a whole.
endpointName: growth inhibition (%)
Expressed in %, but write only the number.

Consider the following illustrative entries.
CCOc1ccc2ccc3cccnc3c2n1 = 61
CCC1SC(=S)N(c2ccc(Cl)cc2)C1=O (configuration not stated) = 96
[Cl][Pt+2][Cl].[NH-]CC1(C[NH-])CCCCC1 = 98
O=C(N/N=C/c1ccc2c(c1)CCC2)c1ccccc1[N+](=O)[O-] = 0
CCN(CC)c1ccc(N=Nc2cc(S(=O)(=O)O)ccc2O)c(O)c1 = -23
CN(Cc1cccc2ccccc12)Cc1cccc2ccccc12 = 34

Next molecule, please.
Sample "CN(C)c1ccc(/C=C/c2ccnc3ccc4ccccc4c23)cc1" — what was its growth inhibition? 4

###

measurementDescription: NCI Yeast Anticancer Drug Screen. Data for the bub3 strain (AID 167)
measurementSetup: S. cerevisiae bub3 mutant strain, at 50.0 µM
The panel holds about 79,000 compounds, 15% with a hit somewhere; the sample as a whole holds those more often. Active and inactive are the calls of the source. Rule as the data show it: active = growth inhibition above about 70%; inactive = the rest. Starred links: 1 amine or outer side, 2 acyl side, 3 side chain; linkers in the order of their positions; H or OH if unused. Positions of bridges follow the written chain, without caps; N, C: chain ends. Non-standard residues stand in square brackets, D forms with d. Residues, ends and D or L forms follow the SMILES beside them. Chains are numbered I, II in the order given. Actinocin(9to1) = Cc1c2oc3c(C)ccc(C(=O)[*:1])c3nc-2c(C(=O)[*:2])c(N)c1=O; aThr = C[C@H](O)[C@H](N)C(=O)O; NMeV = CN[C@H](C(=O)O)C(C)C; Sar = CNCC(=O)O
Valid outcomes are listed here; reply with one: active, inactive

CC(C)c1ccc(C2NC(=S)NC3=C2c2ccccc2C3=O)cc1 (configuration not stated) = active
Cc1c2oc3c(C)ccc(C(=O)N[C@@H]4C(=O)N[C@H](C(C)C)C(=O)N5CCC[C@H]5C(=O)N(C)CC(=O)N(C)[C@@H](C(C)C)C(=O)O[C@H]4C)c3nc-2c(C(=O)N[C@@H]2C(=O)N[C@H](C(C)C)C(=O)N3CCC[C@H]3C(=O)N(C)CC(=O)N(C)[C@@H](C(C)C)C(=O)O[C@H]2C)c(N)c1=O (I: [aThr][dV]P[Sar][NMeV] / II: [aThr][dV]P[Sar][NMeV]; ester I:1-I:C, II:1-II:C; linker I:N-II:N via Actinocin(9to1)) = active
O=C(O)/C=C\C(=O)NNc1ccc(Br)cc1 = active
Cc1ccccc1C1=C(CC(=O)O)c2ccccc2CC1C (configuration not stated) = active
CC1C=CN(N(C)C)C2=C1C(=O)c1cnccc1C2=O (configuration not stated) = active

What did this assay record as the result for O=C(O)NCC1CCCCC1 (tested in a mixture with another compound) ? inactive

What did this assay record as the result for "Cc1cc(N(CCOS(C)(=O)=O)CCOS(C)(=O)=O)ccc1C=O" ? inactive

What did this assay record as the result for "CCCCCCCCCC/C=C\CC(=O)O" ? inactive

What did this assay record as the result for "CCCCOc1ccc(Nc2c3ccccc3nc3ccccc23)cc1" ? active

What did this assay record as the result for COc1ccc(/C(=N/O)c2ccccc2C2=Nc3ccccc3C(NCc3ccccc3)O2)cc1C (configuration not stated) ? active

What did this assay record as the result for "O=S(=O)(Oc1c(Cl)cc(Cl)cc1Cl)c1ccccc1" ? inactive

What did this assay record as the result for "c1cc2ccc3cc4ncccc4c4ccc(c1)c2c34" ? active

What did this assay record as the result for "CN(C)CCNC(=O)c1cccc2nc3c(ccc4ccccc43)nc12" ? inactive

What did this assay record as the result for COC(=O)C1(N2CCOCC2)CCC([C@@H](c2ccccc2)C(C)[N+](=O)[O-])C1 (some centres not stated) ? inactive

What did this assay record as the result for "CNc1ccc2[nH]c3ccccc3c2c1" ? inactive

What did this assay record as the result for "CC(C)(C(=O)NN)c1ccccc1" ? inactive

What did this assay record as the result for "Cc1ccc(C(C)C)c(C(=C2C=CC(=[N+](C)C)C=C2)c2c(C(C)C)ccc(C)c2O)c1O" ? active
